Target: T1, SARS-CoV-2 Gamma Variant RBD (SARS-CoV-2 Gamma variant)
T1 construct: domain: RBD; coated on ELISA plates
Assay: ELISA, RBD coated
binders and their reported pEC50
API: returns pEC50 as number; meaning -log10 of concentration in mol/L.

In the examples that follow, each entry is paired with its recorded pEC50.
- PP1096 MBP-5HVZ-PAPA-RN-3-H6 (VHH) VHH: QVQLVESGGGLVQPGGSLRLSCAASGFEFTYRAVHWFRQAPGKGREWVAGVVSGGSTYYADSVKGRFTISRDNAKNTVYLQMNSLKPEDTAVYYCNAGPQAEEDTYDYWGQGTQVTVSS: 7.55
- PP1110 MBP-5HVZ-PAPA-RN-26-H6 (VHH, Form: Dimer) VHH: QVQLVESGGGLVQPGGSLRLSCAASGSISSINSMHWYRQAPGKEREWVAAVSSYGSDYYADSVKGRFTISRDNAKNTVYLQMNSLKPEDTAVYYCAARTVTGFTYGDYWGQGTQVTVSS: 8.05
- PP916 MBP-5HVZ-S3b-A8-H6 (VHH, Form: Dimer) VHH: QVQLVESGGGLVQPGGSLRLSCAASGSIISRVKVHWFRQAPGKSREWVAGIDSGTASYYSDSVKGRFTISRDNAKNTVYLQMNSLKPEDTAVYYCAAENRGYGVDWGQGTQVTVSS: 7.37

Next binder, pEC50 to be filled in.
Query :: State the recorded pEC50 for this entry: PP930 MBP-5HVZ-R2b-D4-H6 (VHH, Form: Dimer) VHH: QVQLVESGGGLVQPGGSLRLSCAASGSYASIASMHWFRQAPGKQREFVAGLTSGGSRIYGDSVKGRFTISRDNAKNTVYLQMNSLKPEDTAVYYCTALILHYAGMYDYWGQGTQVTVSS
Result :: 7.99

The reported numbers originate from patent US20240150440A1.
